- measuredTarget: human PPAR γ 2 (Homo sapiens)
- Sequence (P37231 whole entry): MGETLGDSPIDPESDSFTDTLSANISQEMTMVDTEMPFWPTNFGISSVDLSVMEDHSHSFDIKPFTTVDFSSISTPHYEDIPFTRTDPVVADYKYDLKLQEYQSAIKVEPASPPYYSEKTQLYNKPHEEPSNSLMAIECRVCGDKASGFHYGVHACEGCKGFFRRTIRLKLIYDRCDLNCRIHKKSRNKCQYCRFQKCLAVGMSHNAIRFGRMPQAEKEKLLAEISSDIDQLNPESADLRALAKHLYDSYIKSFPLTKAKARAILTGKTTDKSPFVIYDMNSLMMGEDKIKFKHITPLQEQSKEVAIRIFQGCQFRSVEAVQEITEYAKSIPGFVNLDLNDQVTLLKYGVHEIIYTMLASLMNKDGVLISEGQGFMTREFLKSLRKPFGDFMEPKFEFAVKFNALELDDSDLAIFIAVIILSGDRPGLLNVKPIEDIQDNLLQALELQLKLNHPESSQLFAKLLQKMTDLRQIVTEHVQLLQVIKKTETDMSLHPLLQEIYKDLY
- testDetails: Inhibitory activity against PPAR γ transcription in the presence of agonist compound A, luciferase reporter
- testSettings: in the presence of 10 nM compound A (agonist); MG63 cells transfected with pSG5-hPPARg and pGV-P2-PPRE; 24 hr
pIC50: −log10 of the molar value. Where a name gives a salt, the structure may show the parent alone.

- compound: "Cc1ccc(NC(=O)c2cc([N+](=O)[O-])ccc2Cl)cc1"
  pIC50: 7.48
- compound: "O=C(Nc1ccc(CCNC(=S)Nc2cccnc2)cc1)c1cc([N+](=O)[O-])ccc1Cl"
  pIC50: 7.89
- compound: "CCCCCCCCN(CCC)c1ccc(-c2ccc(NC(=O)c3cc([N+](=O)[O-])ccc3Cl)cc2)cc1"
  pIC50: 7.10
- compound: "CCCCCCN(CC)c1ccc(-c2ccc(NC(=O)c3cc([N+](=O)[O-])ccc3Cl)cc2)cc1"
  pIC50: 6.55
- compound: "Cc1ccccc1-c1csc(NC(=O)c2cc([N+](=O)[O-])ccc2Cl)n1"
  pIC50: 7.40
- compound: "O=C(Nc1ccc(N2CCN(C(=O)c3ccncc3)CC2)cc1)c1cc([N+](=O)[O-])ccc1Cl"
  pIC50: 6.89
- compound: "CC(C)(C)OC(=O)Nc1cccc(-c2csc(NC(=O)c3cc([N+](=O)[O-])ccc3Cl)n2)c1"
  pIC50: 7.72
- compound: "Cc1cnc(NC(=O)c2cc([N+](=O)[O-])ccc2Cl)s1"
  pIC50: 6.92
- compound: "CCCCCCCCN(CCCCC)c1ccc(-c2ccc(NC(=O)c3cc([N+](=O)[O-])ccc3Cl)cc2)cc1 [Example 221, mono-hydrochloride]"
  pIC50: 7.47
- compound: "O=C(Nc1ccc(-n2ccnc2)cc1)c1cccc(NC(=O)c2cc([N+](=O)[O-])ccc2Cl)c1"
  pIC50: 7.22
- compound: "Cc1cc(NS(=O)(=O)c2ccc(NC(=O)c3cc([N+](=O)[O-])ccc3Cl)cc2)no1"
  pIC50: 6.17
- compound: "O=C(Nc1c(Cl)ncnc1Cl)c1cc([N+](=O)[O-])ccc1Cl"
  pIC50: 7.64
- compound: "O=C(Nc1ccc(S(=O)(=O)Nc2ccc(N3CCOCC3)cc2)cc1)c1cc([N+](=O)[O-])ccc1Cl"
  pIC50: 7.25
- compound: "O=C(Nc1ccc(S(=O)(=O)N2CCCCC2)cc1)c1cc([N+](=O)[O-])ccc1Cl"
  pIC50: 7.92
- compound: "CCc1ccc(-c2csc(NC(=O)c3cc([N+](=O)[O-])ccc3Cl)n2)cc1"
  pIC50: 7.08
- compound: "CCOC(=O)c1ccc(NC(=O)c2cc([N+](=O)[O-])ccc2Cl)cc1"
  pIC50: 8.20
- compound: "CCCCCc1ccc(NC(=O)c2cc([N+](=O)[O-])ccc2Cl)cc1"
  pIC50: 8.12
- compound: "CCCCCCN(CCCCCC)c1ccc(NC(=O)c2cc([N+](=O)[O-])ccc2Cl)cc1"
  pIC50: 7.70
- compound: "O=C(Nc1ccc(S(=O)(=O)Nc2ccnn2-c2ccccc2)cc1)c1cc([N+](=O)[O-])ccc1Cl"
  pIC50: 7.23
- compound: "O=C(Nc1ccc(NC(=S)Nc2ccncc2)cc1)c1cc([N+](=O)[O-])ccc1Cl"
  pIC50: 7.51
- compound: "O=C(Nc1ccc(Cl)nn1)c1cc([N+](=O)[O-])ccc1Cl"
  pIC50: 6.40
- compound: "O=C(Nc1ccc(-c2ccc(NC(=O)c3cc([N+](=O)[O-])ccc3Cl)cc2)cc1)c1cccnc1"
  pIC50: 8.09
